Where do the numbers come from? From patent US8791267B2.

# pIC50 per entry
# Measurement target: PDE4B (Homo sapiens, UniProt Q07343)
# Sequence (Q07343 whole entry): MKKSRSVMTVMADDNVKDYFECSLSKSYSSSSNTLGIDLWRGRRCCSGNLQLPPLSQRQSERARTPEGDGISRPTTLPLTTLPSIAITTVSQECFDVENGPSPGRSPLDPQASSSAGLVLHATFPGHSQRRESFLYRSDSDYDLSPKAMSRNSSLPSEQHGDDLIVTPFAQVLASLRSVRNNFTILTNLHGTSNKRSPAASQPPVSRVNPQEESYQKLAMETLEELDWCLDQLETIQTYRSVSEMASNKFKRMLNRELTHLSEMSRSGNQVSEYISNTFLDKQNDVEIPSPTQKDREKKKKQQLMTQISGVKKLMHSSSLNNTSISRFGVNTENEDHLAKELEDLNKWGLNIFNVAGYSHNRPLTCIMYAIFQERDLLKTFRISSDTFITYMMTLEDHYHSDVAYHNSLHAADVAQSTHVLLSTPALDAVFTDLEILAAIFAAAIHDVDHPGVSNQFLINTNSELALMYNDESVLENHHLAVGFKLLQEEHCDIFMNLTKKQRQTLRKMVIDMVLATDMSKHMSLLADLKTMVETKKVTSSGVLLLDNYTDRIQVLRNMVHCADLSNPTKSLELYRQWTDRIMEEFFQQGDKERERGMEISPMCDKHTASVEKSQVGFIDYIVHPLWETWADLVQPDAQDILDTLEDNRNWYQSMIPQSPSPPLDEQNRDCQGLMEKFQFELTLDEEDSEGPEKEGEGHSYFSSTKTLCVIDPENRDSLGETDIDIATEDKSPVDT
# Assay: In-vitro assay for PDE4 enzymes, real-time enzyme-coupled spectrophotometric assay, PDE4B Activity (Table 10)
# Type: biochemical
# Condition: human PDE4B (hPDE4B), enzyme-coupled spectrophotometric assay; read-out: PDE4B Activity, hPDE4B
pIC50: −log10 of the molar value.

pIC50 reported for this compound COc1ccc(Cc2ccc(-n3cnnn3)nc2)c(F)c1-c1cccc(Cl)c1 : > 5.30

pIC50 recorded for this compound, COc1ccc(Cc2ccc(=O)[nH]n2)cc1-c1cccc([N+](=O)[O-])c1 , is > 5.30

According to the records, this compound COc1ccc(Cc2ccnn2C)cc1-c1ccc2c(c1)OCO2 displays pIC50 of > 5.30

The reported pIC50 of the compound COc1ccc(Cc2cnc(NC(N)=O)nc2)c(F)c1-c1cccc(C(C)=O)c1 was > 5.30

get_value(item= COc1ccc(-n2cnc3ccc(N)cc32)cc1-c1cccc(Cl)c1 , readout=pIC50) returns > 5.30

Input COc1ccc(Cc2ccc(C(C)N)nc2)c(F)c1-c1cccc(Cl)c1 (stereo not shown) . Output pIC50: > 5.30

Kindly note the recorded pIC50 for COc1ccc(Cn2nnc3ccccc32)cc1-c1cccc([N+](=O)[O-])c1 , which is 4.70 to 5.30

====

IC50 overview
# Measurement target: PDE4 (Homo sapiens)
# Sequence (Q08499 whole entry): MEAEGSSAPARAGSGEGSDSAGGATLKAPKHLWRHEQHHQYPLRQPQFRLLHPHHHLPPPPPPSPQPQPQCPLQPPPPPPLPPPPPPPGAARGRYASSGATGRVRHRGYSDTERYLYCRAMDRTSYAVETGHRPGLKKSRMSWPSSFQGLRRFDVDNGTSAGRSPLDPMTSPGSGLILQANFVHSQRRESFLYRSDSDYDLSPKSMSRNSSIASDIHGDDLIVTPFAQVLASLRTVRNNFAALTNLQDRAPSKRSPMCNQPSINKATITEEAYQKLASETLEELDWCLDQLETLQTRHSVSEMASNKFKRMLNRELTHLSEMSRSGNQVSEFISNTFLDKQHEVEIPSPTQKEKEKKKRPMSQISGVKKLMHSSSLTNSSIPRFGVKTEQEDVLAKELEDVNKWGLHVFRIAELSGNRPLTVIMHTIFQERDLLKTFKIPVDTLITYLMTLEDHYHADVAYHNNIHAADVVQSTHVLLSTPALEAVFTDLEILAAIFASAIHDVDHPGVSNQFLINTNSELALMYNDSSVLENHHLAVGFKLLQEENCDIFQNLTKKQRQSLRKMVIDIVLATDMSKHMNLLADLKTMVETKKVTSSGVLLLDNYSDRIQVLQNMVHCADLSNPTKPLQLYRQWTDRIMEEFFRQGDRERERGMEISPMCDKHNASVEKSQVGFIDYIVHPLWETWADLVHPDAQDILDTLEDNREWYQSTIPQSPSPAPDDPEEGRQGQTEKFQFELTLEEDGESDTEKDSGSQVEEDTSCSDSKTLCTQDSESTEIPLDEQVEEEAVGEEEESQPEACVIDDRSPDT
# Assay: In-vitro assay for PDE4 enzymes, real-time enzyme-coupled spectrophotometric assay (Table 9)
# Type: biochemical
# Condition: human PDE4D; activity class, Table 9; read-out: hPDE4D

Quick note, IC50 for COc1ccc(Cc2ccc(N(C)C)cc2)c(F)c1-c1cccc(C(C)=O)c1 [P-326] landed at < 5 µM

The value of IC50 measured for the compound COc1ccc(Cc2ccc(N3CCC(O)C3)nc2)cc1-c1cccc(Cl)c1 (stereo not drawn) [P-602] turned out to be < 5 µM

// COc1ccc(Cn2cncn2)cc1-c1cccc([N+](=O)[O-])c1 [P-005] : IC50 value = < 5 µM

Record COc1ccc(Cc2ccc(CN)c(F)c2)c(F)c1-c1cccc(Cl)c1 [P-275] . Reported IC50: < 5 µM

====

# Measurement target: PDE4B (Homo sapiens)
# Assay: In-vitro assay for PDE4 enzymes, real-time enzyme-coupled spectrophotometric assay, PDE4B Activity (Table 10)
# Type: biochemical
# Condition: human PDE4B (hPDE4B), enzyme-coupled spectrophotometric assay; read-out: PDE4B Activity, hPDE4B
Structures can show the parent of a compound that is named as a salt.
Readout label: IC50

Recorded IC50 (compound CCN1CCN(Cc2ccc(Cc3ccc(OC)c(-c4cccc(Cl)c4)c3F)cn2)C1=O [P-461, hydrochloride] ): < 5 µM

IC50 reported for this compound COc1ccc(Cc2ccc(CNC(N)=O)cc2)c(F)c1-c1cccc([N+](=O)[O-])c1 : < 5 µM

====

Below is a list of entries, each paired with its recorded pIC50 value.
# Measurement target: PDE4B (Homo sapiens, UniProt Q07343)
# Assay: In-vitro assay for PDE4 enzymes, real-time enzyme-coupled spectrophotometric assay, PDE4B Activity (Table 10)
# Type: biochemical
# Condition: human PDE4B (hPDE4B), enzyme-coupled spectrophotometric assay; read-out: PDE4B Activity, hPDE4B
pIC50: −log10 of the molar value. Counter-ions that a name gives are not always drawn.

[[record]]
compound = "COc1ccc(Cc2ccc(NS(C)(=O)=O)cc2)c(F)c1-c1cccc(Cl)c1"
value_reported = "> 5.30"

[[record]]
compound = "COc1ccc(Cc2ccc(F)cc2)nc1-c1cccc([N+](=O)[O-])c1"
value_reported = "4.70 to 5.30"

[[record]]
compound = "COc1ccc(Cc2ccc(NC(=O)CNC(=O)OC(C)(C)C)cc2)cc1-c1cccc([N+](=O)[O-])c1"
value_reported = "> 5.30"


Input COc1ccc(Cc2ccc(C(C)(C)O)nc2)cc1-c1cccc(Cl)c1 [P-605, HCl salt] . Output pIC50: > 5.30

get_value(item= COc1ccc(Sc2ccc(NC(N)=O)cc2)cc1-c1cccc(Cl)c1 , readout=pIC50) returns > 5.30

The reported pIC50 of the compound CCNC(=O)Nc1ccc(Cc2ccc(OC)c(-c3cccc(Cl)c3)n2)cn1 [P-386, hydrochloride] was > 5.30

Item: NC(=O)Nc1ccc(Cc2ccc(OC(F)F)c(-c3cccc(Br)c3)c2F)cc1 | pIC50: > 5.30

Input COc1ccc(Cc2ccc(N)cc2)c(F)c1-c1cccc(C(C)=O)c1 [P-261, hydrochloride] . Output pIC50: > 5.30

Per the record, COc1ccc(Cn2cncn2)cc1-c1ccc2nonc2c1 has pIC50 of 4.70 to 5.30

====

# Measurement target: PDE4B (Homo sapiens)
# Assay: In-vitro assay for PDE4 enzymes, real-time enzyme-coupled spectrophotometric assay, PDE4B Activity (Table 10)
# Format: biochemical
# Condition: human PDE4B (hPDE4B), enzyme-coupled spectrophotometric assay; read-out: PDE4B Activity, hPDE4B
Structures can show the parent of a compound that is named as a salt.
Readout label: IC50

[[record]]
compound = "COc1ccc(Cc2ccc(C(C)(C)O)nc2)c(F)c1-c1cccc(Cl)c1 [P-587, hydrochloride]"
measurement_target = "PDE4B (Homo sapiens)"
value_reported = "< 5 µM"

[[record]]
compound = "COc1ccc(CN2CC[C@@H](O)C2)cc1-c1cccc([N+](=O)[O-])c1"
measurement_target = "PDE4B (Homo sapiens)"
value_reported = "21 to 40 µM"

[[record]]
compound = "COc1ccc(Cc2ccc(C(N)=O)nc2)c(F)c1-c1cccc(C#N)c1"
measurement_target = "PDE4B (Homo sapiens)"
value_reported = "< 5 µM"

[[record]]
compound = "NC(=O)Nc1ccc(Cc2ccc(OC(F)F)c(-c3cccc(Cl)c3)c2)cc1"
measurement_target = "PDE4B (Homo sapiens)"
value_reported = "< 5 µM"

[[record]]
compound = "CCOc1ccc(Cc2ccc(NC(N)=O)cc2)c(F)c1-c1cccc(C(C)=O)c1"
measurement_target = "PDE4B (Homo sapiens)"
value_reported = "< 5 µM"


The compound identified as COc1ccc(Cc2ccnc(CN)c2)c(F)c1-c1cccc(Cl)c1 registered its IC50 at < 5 µM

IC50 in this record for COc1ccc(Cc2ccncc2)cc1-c1ccc2nonc2c1 : < 5 µM

Lookup result for COc1ccc(Cc2ccc(C(N)=O)cc2)c(F)c1-c1cccc(C(C)=O)c1 ; measured IC50: 5 to 20 µM

Reported IC50 of CNC(=O)NCc1ccc(Cc2ccc(OC)c(-c3cccc(Cl)c3)c2)cn1 [P-593, hydrochloride] : < 5 µM

====

Readings of pIC50 for the listed compounds
# Measurement target: PDE4 (Homo sapiens)
# Assay: In-vitro assay for PDE4 enzymes, real-time enzyme-coupled spectrophotometric assay (Table 9)
# Format: biochemical
# Condition: human PDE4D; activity class, Table 9; read-out: hPDE4D
pIC50: −log10 of the molar value. Counter-ions that a name gives are not always drawn.

[[record]]
compound = "COc1ccc(CN2C(=O)CCCC2=O)cc1-c1cccc([N+](=O)[O-])c1"
measurement_target = "PDE4 (Homo sapiens)"
readout_label = "pIC50"
value_reported = "4.70 to 5.30"

[[record]]
compound = "COc1ccc(Cc2ccc(N)nc2)c(F)c1-c1cccc(Cl)c1"
measurement_target = "PDE4 (Homo sapiens)"
readout_label = "pIC50"
value_reported = "> 5.30"

[[record]]
compound = "COc1ccc(CN2CCN(C(N)=O)CC2)c(F)c1-c1cccc(Cl)c1"
measurement_target = "PDE4 (Homo sapiens)"
readout_label = "pIC50"
value_reported = "> 5.30"

[[record]]
compound = "CCNC(=O)Nc1nc(Cc2ccc(OC)c(-c3cccc(Cl)c3)c2F)cs1"
measurement_target = "PDE4 (Homo sapiens)"
readout_label = "pIC50"
value_reported = "> 5.30"

[[record]]
compound = "COc1ccc(Cc2ccno2)c(O)c1-c1cccc([N+](=O)[O-])c1"
measurement_target = "PDE4 (Homo sapiens)"
readout_label = "pIC50"
value_reported = "> 5.30"


Recorded result, COc1ccc(C(C)(O)c2ccc(NC(N)=O)cc2)c(F)c1-c1cccc(Cl)c1 (stereo not drawn) , pIC50: > 5.30

The recorded pIC50 for entry COc1ccc(Cn2cc(-c3ccc(NC(N)=O)cc3)cn2)c(F)c1-c1cccc(Cl)c1 equals > 5.30

The reported value for CCNC(=O)NCc1ccc(Cc2ccc(OC)c(-c3cccc(Cl)c3)c2)cn1 [P-597, hydrochloride] in terms of pIC50 is > 5.30

Value of measured pIC50 for the entry NCCOc1ccc(Cc2ccc(NC(N)=O)cc2)cc1-c1cccc(Cl)c1 : 4.40 to 4.70

====

# Measurement target: PDE4B (Homo sapiens, UniProt Q07343)
# Assay: In-vitro assay for PDE4 enzymes, real-time enzyme-coupled spectrophotometric assay, PDE4B Activity (Table 10)
# Assay type: biochemical
# Condition: human PDE4B (hPDE4B), enzyme-coupled spectrophotometric assay; read-out: PDE4B Activity, hPDE4B
Property: IC50; scope: individual compounds

See these solved cases before continuing.
[[record]]
compound = "CCNC(=O)Nc1ccc(Sc2ccc(OC)c(-c3cccc(Cl)c3)c2)cc1"
measurement_target = "PDE4B (Homo sapiens, UniProt Q07343)"
readout_label = "IC50"
value_reported = "< 5 µM"

[[record]]
compound = "COc1ccc(Cc2cnc(N3CC(O)C3)nc2)c(F)c1-c1cccc(Cl)c1"
measurement_target = "PDE4B (Homo sapiens, UniProt Q07343)"
readout_label = "IC50"
value_reported = "< 5 µM"

[[record]]
compound = "COc1ccc(Cc2ccc(F)cc2)c(F)c1-c1cccc([N+](=O)[O-])c1"
measurement_target = "PDE4B (Homo sapiens, UniProt Q07343)"
readout_label = "IC50"
value_reported = "< 5 µM"

[[record]]
compound = "COc1ccc(CN2C(=O)c3cccnc3C2=O)cc1-c1cccc([N+](=O)[O-])c1"
measurement_target = "PDE4B (Homo sapiens, UniProt Q07343)"
readout_label = "IC50"
value_reported = "5 to 20 µM"

[[record]]
compound = "COc1ccc(COC2=CC(=O)CC2)cc1-c1cccc([N+](=O)[O-])c1"
measurement_target = "PDE4B (Homo sapiens, UniProt Q07343)"
readout_label = "IC50"
value_reported = "< 5 µM"


compound COc1ccc(Cc2ccncc2)c(O)c1-c1cccc([N+](=O)[O-])c1 , IC50 observed: < 5 µM

For CNc1ccc(Cc2ccc(OC)c(-c3cccc(Cl)c3)c2F)cc1 the compound record lists IC50 as < 5 µM

The compound listed as COc1ccc(Cc2ccc(F)c(CO)c2)cc1-c1cccc([N+](=O)[O-])c1 has a reported IC50 of < 5 µM
